Measured IC50 by item
test: Inhibition of acetyl-CoA carboxylase in rat skeletal muscle by HPLC at 1 uM/L; assay type: tissue-based, Muscle tissue
OUTCOME_MEASURE: IC50 (nM)

>  <TEST_SMILES>
CCCC(=O)Nc1ccc2c(c1)C(=O)CC1(CCN(C(=O)N3c4ccccc4Oc4ccccc43)CC1)O2

>  <UNITS>
nM

>  <REPORTED_MEASUREMENT>
101

$$$$
>  <TEST_SMILES>
O=C1CC2(CCN(C(=O)N3c4ccccc4Oc4ccccc43)CC2)Oc2cc(N3CCOCC3)ccc21

>  <UNITS>
nM

>  <REPORTED_MEASUREMENT>
208

$$$$
>  <TEST_SMILES>
O=C1CC2(CCN(C(=O)N3c4ccccc4Oc4ccccc43)CC2)Oc2ccc(N3CCCC3=O)cc21

>  <UNITS>
nM

>  <REPORTED_MEASUREMENT>
236

$$$$
>  <TEST_SMILES>
O=C1CC2(CCN(C(=O)N3c4ccccc4Oc4ccccc43)CC2)Oc2ccc(N3CCOCC3)cc21

>  <UNITS>
nM

>  <REPORTED_MEASUREMENT>
99

$$$$
